Parameter: IC50. Scope: all listed entries.
# SYSTEM NAME: epithelial sodium channel (ENaC) (Homo sapiens, UniProt P37088+P51168+P51170)
# Construct: host or cells: primary Human Bronchial Epithelial cells (HBECs), air-liquid interface culture
# Sequence (P37088 whole entry): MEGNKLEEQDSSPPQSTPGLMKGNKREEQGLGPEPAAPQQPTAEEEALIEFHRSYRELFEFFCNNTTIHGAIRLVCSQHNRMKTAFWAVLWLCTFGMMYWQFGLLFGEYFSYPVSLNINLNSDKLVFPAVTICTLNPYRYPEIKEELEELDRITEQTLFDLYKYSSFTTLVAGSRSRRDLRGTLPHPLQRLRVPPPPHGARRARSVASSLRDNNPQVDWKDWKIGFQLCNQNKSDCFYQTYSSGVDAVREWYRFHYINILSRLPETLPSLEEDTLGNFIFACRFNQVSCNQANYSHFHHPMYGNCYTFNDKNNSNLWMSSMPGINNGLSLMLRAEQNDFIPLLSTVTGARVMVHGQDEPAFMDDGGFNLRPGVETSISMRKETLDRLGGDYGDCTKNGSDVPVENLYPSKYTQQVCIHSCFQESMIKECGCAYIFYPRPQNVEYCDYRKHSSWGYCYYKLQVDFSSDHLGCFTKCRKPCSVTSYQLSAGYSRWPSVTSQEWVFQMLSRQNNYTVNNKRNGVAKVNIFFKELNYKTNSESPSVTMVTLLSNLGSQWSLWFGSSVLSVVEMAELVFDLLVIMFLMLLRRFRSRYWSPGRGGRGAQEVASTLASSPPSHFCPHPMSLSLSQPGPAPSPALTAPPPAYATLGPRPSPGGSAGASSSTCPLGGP
# Sequence (P51168 whole entry): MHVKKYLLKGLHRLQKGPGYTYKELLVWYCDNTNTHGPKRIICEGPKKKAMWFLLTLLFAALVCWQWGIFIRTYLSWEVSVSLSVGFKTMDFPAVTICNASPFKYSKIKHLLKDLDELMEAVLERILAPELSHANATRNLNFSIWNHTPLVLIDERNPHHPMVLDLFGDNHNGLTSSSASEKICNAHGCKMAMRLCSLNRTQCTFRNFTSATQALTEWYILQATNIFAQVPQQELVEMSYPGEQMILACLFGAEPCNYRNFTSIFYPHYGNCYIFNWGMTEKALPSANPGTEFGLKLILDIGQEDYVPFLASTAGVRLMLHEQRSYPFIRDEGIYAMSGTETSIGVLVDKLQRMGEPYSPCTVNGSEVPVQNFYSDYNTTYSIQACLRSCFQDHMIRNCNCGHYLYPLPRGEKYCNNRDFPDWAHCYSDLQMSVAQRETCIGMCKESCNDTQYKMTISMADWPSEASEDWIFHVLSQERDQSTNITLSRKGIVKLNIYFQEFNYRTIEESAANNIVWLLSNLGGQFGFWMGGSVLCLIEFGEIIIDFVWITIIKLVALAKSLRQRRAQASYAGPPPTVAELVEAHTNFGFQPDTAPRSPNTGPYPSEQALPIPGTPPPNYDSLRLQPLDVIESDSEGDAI
# Sequence (P51170 whole entry): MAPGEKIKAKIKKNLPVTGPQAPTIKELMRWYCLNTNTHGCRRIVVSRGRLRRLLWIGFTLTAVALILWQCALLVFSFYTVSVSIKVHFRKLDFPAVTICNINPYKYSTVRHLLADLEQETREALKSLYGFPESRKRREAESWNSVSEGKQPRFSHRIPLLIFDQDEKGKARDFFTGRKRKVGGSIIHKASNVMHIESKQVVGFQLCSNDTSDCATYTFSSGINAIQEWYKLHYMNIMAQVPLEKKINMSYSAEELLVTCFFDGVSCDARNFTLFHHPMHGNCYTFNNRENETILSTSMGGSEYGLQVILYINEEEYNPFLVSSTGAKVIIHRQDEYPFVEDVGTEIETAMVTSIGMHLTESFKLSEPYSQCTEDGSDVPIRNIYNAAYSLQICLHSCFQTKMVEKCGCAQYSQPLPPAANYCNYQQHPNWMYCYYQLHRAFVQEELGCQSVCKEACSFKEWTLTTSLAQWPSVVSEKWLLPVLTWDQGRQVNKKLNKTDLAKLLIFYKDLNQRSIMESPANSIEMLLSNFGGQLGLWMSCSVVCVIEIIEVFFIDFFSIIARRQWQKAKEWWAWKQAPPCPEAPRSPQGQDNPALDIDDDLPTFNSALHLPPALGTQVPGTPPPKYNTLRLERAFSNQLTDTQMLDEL
# MEASUREMENT PROTOCOL: Short circuit current (ISC) measurements in Human Bronchial Epithelial cells, inhibition of amiloride-sensitive ISC
# Type: cell-based
# Experimental: Compounds of formula (I) and their pharmaceutically acceptable salts, hereinafter referred to alternatively as “agents of the invention”, are useful as pharmaceuticals. […] Test compounds were prepared as a 10 mM stock solution in DMSO (95%). […] At the completion of the concentration-response experiment, amiloride (10 μM) was added into the apical chamber to enable the total amiloride-sensitive current to be measured. […] Results are expressed as the mean % inhibition of the amiloride-sensitive ISC. […]

# SAMPLE SMILES, SYSTEM NAME, PARAMETER, MEASURED VALUE
records = [
    ("Nc1nc(N)c(C(=O)/N=C2\\NCC3(CCN(C(=O)c4ccc(C(=O)N5CCC6(CC5)CN/C(=N\\C(=O)c5nc(Cl)c(N)nc5N)N6)cc4)CC3)N2)nc1Cl", "epithelial sodium channel (ENaC) (Homo sapiens, UniProt P37088+P51168+P51170)", "IC50", "37 nM"),
]

Let's switch to this compound now.
# lookup: IC50 of `CC(C)(C)c1ccc(OCCn2ccc3c(C(=O)N4CCC5(CC4)CN/C(=N\C(=O)c4nc(Cl)c(N)nc4N)N5)cccc32)cc1`
8 nM

Reference source for all entries: patent US8697687B2
